# Test system: T cell hybridoma 5G11
# procedureText: T hybridoma 5G11 IL-2 response
# Format: cell-based, mouse
# recordedConditions: Figure 1; IL-2 production, DRB1*0401 BLCL as APC; duplicate or triplicate; background 29,203 counts; ±30% of WT response = super/partial agonist
Non-standard residues stand in square brackets, D forms with d. Residues, ends and D or L forms follow the SMILES beside them. Phe(4-NO2) = N[C@@H](Cc1ccc([N+](=O)[O-])cc1)C(=O)O; Phe(4-F) = N[C@@H](Cc1ccc(F)cc1)C(=O)O; 3Pal = N[C@@H](Cc1cccnc1)C(=O)O; Cha = N[C@@H](CC1CCCCC1)C(=O)O
T hybridoma (SI) 5G11 reference
Report only the number, with the unit SI understood.

Past entries and their recorded results:
| compound | T hybridoma (SI) 5G11 |
| --- | --- |
| CC(C)C[C@H](NC(=O)[C@@H](NC(=O)[C@H](CC1CCCCC1)NC(=O)[C@H](CO)NC(=O)[C@@H](N)CCCNC(=N)N)[C@@H](C)O)C(=O)N[C@@H](C)C(=O)N[C@@H](CO)C(=O)N[C@@H](CO)C(=O)N[C@@H](CCC(=O)O)C(=O)N[C@H](C(=O)NCC(=O)N[C@H](C(=O)NCC(=O)O)C(C)C)[C@@H](C)O [Compound 25] (H-RS[Cha]TLASSETGVG-OH) | 32 |
| CC(C)C[C@H](NC(=O)[C@@H](NC(=O)[C@H](Cc1ccc(F)cc1)NC(=O)[C@H](CO)NC(=O)[C@@H](N)CCCNC(=N)N)[C@@H](C)O)C(=O)N[C@@H](C)C(=O)N[C@@H](CO)C(=O)N[C@@H](CO)C(=O)N[C@@H](CCC(=O)O)C(=O)N[C@H](C(=O)NCC(=O)N[C@H](C(=O)NCC(=O)O)C(C)C)[C@@H](C)O [Compound 30] (H-RS[Phe(4-F)]TLASSETGVG-OH) | 29 |
| CC(C)C[C@H](NC(=O)[C@@H](NC(=O)[C@H](Cc1cccnc1)NC(=O)[C@H](CO)NC(=O)[C@@H](N)CCCNC(=N)N)[C@@H](C)O)C(=O)N[C@@H](C)C(=O)N[C@@H](CO)C(=O)N[C@@H](CO)C(=O)N[C@@H](CCC(=O)O)C(=O)N[C@H](C(=O)NCC(=O)N[C@H](C(=O)NCC(=O)O)C(C)C)[C@@H](C)O [Compound 29] (H-RS[3Pal]TLASSETGVG-OH) | 23 |

Incoming: Provide value of T hybridoma (SI) 5G11 for this record tested with T cell hybridoma 5G11: CC(C)C[C@H](NC(=O)[C@@H](NC(=O)[C@H](Cc1ccc([N+](=O)[O-])cc1)NC(=O)[C@H](CO)NC(=O)[C@@H](N)CCCNC(=N)N)[C@@H](C)O)C(=O)N[C@@H](C)C(=O)N[C@@H](CO)C(=O)N[C@@H](CO)C(=O)N[C@@H](CCC(=O)O)C(=O)N[C@H](C(=O)NCC(=O)N[C@H](C(=O)NCC(=O)O)C(C)C)[C@@H](C)O [Compound 34] (H-RS[Phe(4-NO2)]TLASSETGVG-OH)
Outgoing: 32

Data provenance: paper PMC2206373
